target: Scribble PDZ1 (His-tagged, aa 719-829) (human, UniProt Q14160 719-829); assay: ITC
Sequence (Q14160 719-829): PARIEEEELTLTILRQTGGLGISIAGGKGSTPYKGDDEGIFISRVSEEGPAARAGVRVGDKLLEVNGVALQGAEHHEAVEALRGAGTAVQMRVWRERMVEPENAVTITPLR
Recorded Endpoint: pKd
Give bare numbers, as −log10 of the molar value.

What the record says about ARVSKETPL [ARVSKETPL (MAPK12 peptide, unphosphorylated)] : pKd is 5.80

Every entry's value here was drawn from paper PMC6100724.
